tested on: preferentially upregulated genes in LV, SP, LN; assay: Z-score-based differential gene expression analysis (adjuvant group- or adjuvant-associated genes, 40 module mapping, TargetMine annotation); assay type: in vivo, C57BL/6 mice; conditions: ID, LV, sample x1
endpointLabel: Tor1aip2 1418115_s_at (Group G1, Modules 20)
Just the number, please, no unit after it.

Known Tor1aip2 1418115_s_at (Group G1, Modules 20) results, listed for orientation:
compound: Nc1nc2c(ncn2[C@@H]2O[C@@H]3COP(=O)(O)O[C@H]4[C@@H](O)[C@H](n5cnc6c(N)ncnc65)O[C@@H]4COP(=O)(O)O[C@@H]2[C@@H]3O)c(=O)[nH]1 [cGAMP, Cyclic [G(2′,5′)pA(3′,5′)p]]
quantitativeReadout: 2.9

compound: Cc1ccc2c(=O)c3cccc(CC(=O)O)c3oc2c1C [DMXAA, 5,6-dimethylxanthenone-4-acetic acid]
quantitativeReadout: 2.45

compound: Nc1nc2c(ncn2[C@@H]2O[C@@H]3COP(=O)(O)O[C@H]4[C@@H](O)[C@H](n5cnc6c(=O)[nH]c(N)nc65)O[C@@H]4COP(=O)(O)O[C@H]3[C@H]2O)c(=O)[nH]1 [cdiGMP, Cyclic diguanylate monophosphate]
quantitativeReadout: 1.81

Turning to the following compound.
Looking for the measured Tor1aip2 1418115_s_at (Group G1, Modules 20) of CCOCc1nc2c(N)nc3ccccc3c2n1CC(C)(C)O [R848] , can you help?
1.53
